- Target system: T1, HLA-A*02:01 (peptide-receptive MHC class I molecule of the UV-ligand exchange assay) (human)
- T1 construct: MHC monomer first loaded with a UV-sensitive peptide (not identified) that is cleaved by UV light and exchanged for the test peptide; captured on streptavidin plates
- Assay text: UV-ligand exchange, anti-b2m ELISA; peptide exchange yield grade (>=10% = +; >=20% = ++; >=50 = +++; >=75% = ++++)
List of peptide exchange yield values.

Sample records with peptide exchange yield:
QUERY: I'd like to know its peptide exchange yield. The binder in question is KVVGKDYLL (synthetic peptide; source gene CAPZB) [KVVGKDYLL (SEQ ID NO: 43)]
RESULT: 10 to 20%

QUERY: What value of peptide exchange yield has been recorded for this entry: LILESIPVV (synthetic peptide; source gene MAPK6) [LILESIPVV (SEQ ID NO: 58)]
RESULT: 20 to 50%

QUERY: Entry under review: VVMEELLKV (synthetic peptide; source gene CYFIP1) [VVMEELLKV (SEQ ID NO: 60)] . Reported peptide exchange yield?
RESULT: 20 to 50%

***
QUERY: Value lookup for peptide exchange yield; key = MLAEKLLQA (synthetic peptide; source gene FAT1) [MLAEKLLQA (SEQ ID NO: 26)]
RESULT: 10 to 20%

QUERY: Any idea what peptide exchange yield was measured for SLYNLGGSKRISI (synthetic peptide; source gene KRT5) [SLYNLGGSKRISI (SEQ ID NO: 2)] ?
RESULT: ≥ 75%

QUERY: # get_value(readout='peptide exchange yield', item= TQTTHELTI (synthetic peptide; source gene PCBP1) [TQTTHELTI (SEQ ID NO: 61)] )
RESULT: 50 to 75%

QUERY: Please give the measured peptide exchange yield for this binder: GLASRILDA (synthetic peptide; source gene LAMB3) [GLASRILDA (SEQ ID NO: 12)]
RESULT: 50 to 75%

QUERY: Bench note: what peptide exchange yield did NLMASQPQL (synthetic peptide; source gene PKP1) [NLMASQPQL (SEQ ID NO: 5)] show?
RESULT: 50 to 75%

Each recorded value in this set is attributed to patent US20260028387A1.
